Documented IC50 across a set of molecules
Target: CYP2E1 (Homo sapiens, UniProt P05181)
Construct: 40 µL of the human liver microsomal enzyme (final concentration is 0.5 g/L); tissue Research Institute for Liver Diseases Co., Ltd. (Shanghai, China); host or cells: human liver microsomes
Sequence (P05181 whole entry): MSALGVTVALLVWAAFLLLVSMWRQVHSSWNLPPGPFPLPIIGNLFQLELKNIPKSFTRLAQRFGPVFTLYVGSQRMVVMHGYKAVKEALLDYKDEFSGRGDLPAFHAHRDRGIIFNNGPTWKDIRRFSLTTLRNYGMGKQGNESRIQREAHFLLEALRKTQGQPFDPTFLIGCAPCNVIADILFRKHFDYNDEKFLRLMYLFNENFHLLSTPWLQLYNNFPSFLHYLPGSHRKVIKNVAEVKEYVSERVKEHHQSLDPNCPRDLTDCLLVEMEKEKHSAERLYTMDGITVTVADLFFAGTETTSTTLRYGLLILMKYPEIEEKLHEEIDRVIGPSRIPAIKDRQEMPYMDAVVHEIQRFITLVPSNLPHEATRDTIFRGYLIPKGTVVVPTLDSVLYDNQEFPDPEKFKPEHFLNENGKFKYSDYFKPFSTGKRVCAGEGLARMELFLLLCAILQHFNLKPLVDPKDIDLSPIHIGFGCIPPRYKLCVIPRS
Experiment: CYP450 inhibition assay, human liver microsomes, chlorzoxazone probe
Assay type: in vitro ADME
Conditions: human liver microsomes; Figure 6; read-out: IC50 CYP2E1 (value in plot key)
assayEndpoint: IC50

>  <molecule>
C=C[C@]1(C)C[C@@H](OC(=O)CSc2ccccc2NC(=O)Cn2cc(CN3CCN(c4ccc([N+](=O)[O-])cc4)CC3)nn2)[C@]2(C)[C@H](C)CC[C@]3(CCC(=O)[C@H]32)[C@@H](C)[C@@H]1O [Compound Z33]

>  <assayEndpoint>
IC50

>  <value>
10.2 µM

$$$$
>  <molecule>
C=C[C@]1(C)C[C@@H](OC(=O)CSCCN(CC)CC)[C@]2(C)[C@H](C)CC[C@]3(CCC(=O)[C@H]32)[C@@H](C)[C@@H]1O [tiamulin, reference compound]

>  <assayEndpoint>
IC50

>  <value>
0.184 µM

$$$$
